Test system: cerebellar granule cells (CGC)
Settings: Wistar, rat, 6 days, 1 μM
Where a SMILES comes first, the peptide text is derived from it. [ ]: non-standard residue; d: D form. Hyp = O=C(O)[C@@H]1C[C@@H](O)CN1
Reported values of Viability (%) for individual entries
Provide the reading as a plain figure in %.

// solved cases for Viability (%) follow
O=C(O)CC[C@@H]1NC(=O)[C@@H]2C[C@@H](O)CN2C1=O [C-EO]	52.0
O=C1[C@@H]2C[C@@H](O)CN2C(=O)[C@@H]2CCCN12 [C-PO]	58.4
N[C@@H](CCC(=O)O)C(=O)N1C[C@H](O)C[C@H]1C(=O)O [EO] (H-Glu-[Hyp]-OH; N-terminus and C-terminus assumed)	54.8
O=C(O)[C@@H]1C[C@@H](O)CN1C(=O)[C@@H]1CCCN1 [PO, Pro-Hyp] (H-Pro-[Hyp]-OH; N-terminus and C-terminus assumed)	51.8
C[C@H](N)C(=O)N1C[C@H](O)C[C@H]1C(=O)O [AO] (H-Ala-[Hyp]-OH; N-terminus and C-terminus assumed)	57.0

Now for a further molecule.
Give the value of Viability (%) reported for the following: O=C1NCC(=O)N2C[C@H](O)C[C@@H]12 [C-OG]
63.2
